- target under test: SUR1^K134A/Kir6.2^Q52R channel (UniProt P70673+Q09427, K134A/Q52R)
- Sequence (P70673 whole entry Q52R): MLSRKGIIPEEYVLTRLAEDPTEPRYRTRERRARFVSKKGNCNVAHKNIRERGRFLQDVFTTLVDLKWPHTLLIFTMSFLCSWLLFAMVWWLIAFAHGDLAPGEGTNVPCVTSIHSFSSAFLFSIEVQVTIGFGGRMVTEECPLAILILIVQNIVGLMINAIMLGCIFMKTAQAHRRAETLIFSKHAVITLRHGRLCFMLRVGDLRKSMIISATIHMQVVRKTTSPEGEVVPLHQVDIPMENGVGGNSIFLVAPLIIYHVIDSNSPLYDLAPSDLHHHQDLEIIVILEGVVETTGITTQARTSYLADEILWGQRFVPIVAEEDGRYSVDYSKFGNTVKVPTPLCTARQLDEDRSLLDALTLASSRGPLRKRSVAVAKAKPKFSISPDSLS
- Sequence (Q09427 whole entry K134A): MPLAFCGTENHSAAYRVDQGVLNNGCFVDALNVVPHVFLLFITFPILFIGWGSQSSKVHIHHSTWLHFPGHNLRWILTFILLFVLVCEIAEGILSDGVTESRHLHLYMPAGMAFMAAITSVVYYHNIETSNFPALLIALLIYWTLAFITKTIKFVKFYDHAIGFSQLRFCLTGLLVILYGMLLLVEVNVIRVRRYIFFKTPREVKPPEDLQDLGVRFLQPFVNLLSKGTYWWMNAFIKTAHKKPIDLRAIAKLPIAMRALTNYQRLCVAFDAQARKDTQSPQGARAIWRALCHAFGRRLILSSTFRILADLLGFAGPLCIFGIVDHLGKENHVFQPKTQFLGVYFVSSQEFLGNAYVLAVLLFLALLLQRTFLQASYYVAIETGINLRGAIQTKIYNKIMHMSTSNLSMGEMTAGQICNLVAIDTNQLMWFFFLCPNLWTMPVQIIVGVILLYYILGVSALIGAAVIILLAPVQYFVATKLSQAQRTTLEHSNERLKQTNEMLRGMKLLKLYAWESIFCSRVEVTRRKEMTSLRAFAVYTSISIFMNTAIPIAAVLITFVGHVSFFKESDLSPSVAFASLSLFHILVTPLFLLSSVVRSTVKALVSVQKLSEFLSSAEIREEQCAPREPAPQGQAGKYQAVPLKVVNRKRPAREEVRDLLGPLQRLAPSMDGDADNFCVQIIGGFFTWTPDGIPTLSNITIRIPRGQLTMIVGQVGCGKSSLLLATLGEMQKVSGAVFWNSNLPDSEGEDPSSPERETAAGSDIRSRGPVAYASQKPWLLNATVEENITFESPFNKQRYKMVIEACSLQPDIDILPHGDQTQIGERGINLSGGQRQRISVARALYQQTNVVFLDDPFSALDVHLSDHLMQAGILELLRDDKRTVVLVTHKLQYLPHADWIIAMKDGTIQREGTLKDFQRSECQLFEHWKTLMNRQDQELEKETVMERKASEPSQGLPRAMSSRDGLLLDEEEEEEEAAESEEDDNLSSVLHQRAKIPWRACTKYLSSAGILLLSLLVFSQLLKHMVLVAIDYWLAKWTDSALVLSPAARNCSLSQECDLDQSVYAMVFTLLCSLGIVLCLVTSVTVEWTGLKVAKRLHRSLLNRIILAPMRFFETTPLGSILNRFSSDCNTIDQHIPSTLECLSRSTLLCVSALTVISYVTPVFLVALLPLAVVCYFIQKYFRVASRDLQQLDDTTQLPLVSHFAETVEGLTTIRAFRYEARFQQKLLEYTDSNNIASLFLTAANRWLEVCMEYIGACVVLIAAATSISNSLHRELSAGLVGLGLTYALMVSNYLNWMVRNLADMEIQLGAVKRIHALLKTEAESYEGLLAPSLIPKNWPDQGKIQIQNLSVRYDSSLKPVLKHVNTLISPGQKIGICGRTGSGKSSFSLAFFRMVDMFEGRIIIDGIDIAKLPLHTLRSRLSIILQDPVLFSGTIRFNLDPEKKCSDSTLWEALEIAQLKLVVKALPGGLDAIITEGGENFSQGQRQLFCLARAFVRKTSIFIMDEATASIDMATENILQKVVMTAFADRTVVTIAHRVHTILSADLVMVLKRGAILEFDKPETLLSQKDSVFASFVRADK
- assay details: ATP inhibition, inside-out patch-clamp recording, COSm6 cells
- run parameters: mean ± SEM; Hill fit; −50 mV; K-INT
measurement kind: IC50 (µM)
Output spec: scalar in µM, unitless text.

stdin: Specify reported IC50 for the compound shown: `Nc1ncnc2c1ncn2[C@@H]1O[C@H](COP(=O)(O)OP(=O)(O)OP(=O)(O)O)[C@@H](O)[C@H]1O`
stdout: 54.1

---

- target under test: SUR1^K134A/Kir6.2^Q52R/R176A channel (UniProt P70673+Q09427, K134A/Q52R/R176A)
- Sequence (P70673 whole entry Q52R/R176A, one chain of several): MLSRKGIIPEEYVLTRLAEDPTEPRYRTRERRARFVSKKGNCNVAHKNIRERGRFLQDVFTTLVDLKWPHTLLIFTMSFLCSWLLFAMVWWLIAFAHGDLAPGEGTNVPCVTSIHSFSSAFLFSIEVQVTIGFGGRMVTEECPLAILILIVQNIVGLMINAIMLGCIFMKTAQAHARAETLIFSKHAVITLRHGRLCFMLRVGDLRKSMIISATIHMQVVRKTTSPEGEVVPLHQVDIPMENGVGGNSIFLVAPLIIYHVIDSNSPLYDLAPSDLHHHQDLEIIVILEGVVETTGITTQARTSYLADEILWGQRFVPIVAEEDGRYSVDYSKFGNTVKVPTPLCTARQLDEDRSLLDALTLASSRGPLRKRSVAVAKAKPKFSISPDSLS
- assay details: ATP inhibition, inside-out patch-clamp recording, COSm6 cells
- run parameters: mean ± SEM; Hill fit; −50 mV; K-INT
measurement kind: IC50 (µM)
Expressed in µM, but write only the number.

stdin: Respond only with IC50 recorded for Nc1ncnc2c1ncn2[C@@H]1O[C@H](COP(=O)(O)OP(=O)(O)OP(=O)(O)O)[C@@H](O)[C@H]1O [ATP]
stdout: 8.3

---

- target under test: WT (SUR1/Kir6.2) KATP channels (UniProt P70673+Q09427)
- Sequence (P70673 whole entry): as the sequence (P70673 whole entry Q52R/R176A, one chain of several) above, with R52Q, A176R counted along it
- Sequence (Q09427 whole entry): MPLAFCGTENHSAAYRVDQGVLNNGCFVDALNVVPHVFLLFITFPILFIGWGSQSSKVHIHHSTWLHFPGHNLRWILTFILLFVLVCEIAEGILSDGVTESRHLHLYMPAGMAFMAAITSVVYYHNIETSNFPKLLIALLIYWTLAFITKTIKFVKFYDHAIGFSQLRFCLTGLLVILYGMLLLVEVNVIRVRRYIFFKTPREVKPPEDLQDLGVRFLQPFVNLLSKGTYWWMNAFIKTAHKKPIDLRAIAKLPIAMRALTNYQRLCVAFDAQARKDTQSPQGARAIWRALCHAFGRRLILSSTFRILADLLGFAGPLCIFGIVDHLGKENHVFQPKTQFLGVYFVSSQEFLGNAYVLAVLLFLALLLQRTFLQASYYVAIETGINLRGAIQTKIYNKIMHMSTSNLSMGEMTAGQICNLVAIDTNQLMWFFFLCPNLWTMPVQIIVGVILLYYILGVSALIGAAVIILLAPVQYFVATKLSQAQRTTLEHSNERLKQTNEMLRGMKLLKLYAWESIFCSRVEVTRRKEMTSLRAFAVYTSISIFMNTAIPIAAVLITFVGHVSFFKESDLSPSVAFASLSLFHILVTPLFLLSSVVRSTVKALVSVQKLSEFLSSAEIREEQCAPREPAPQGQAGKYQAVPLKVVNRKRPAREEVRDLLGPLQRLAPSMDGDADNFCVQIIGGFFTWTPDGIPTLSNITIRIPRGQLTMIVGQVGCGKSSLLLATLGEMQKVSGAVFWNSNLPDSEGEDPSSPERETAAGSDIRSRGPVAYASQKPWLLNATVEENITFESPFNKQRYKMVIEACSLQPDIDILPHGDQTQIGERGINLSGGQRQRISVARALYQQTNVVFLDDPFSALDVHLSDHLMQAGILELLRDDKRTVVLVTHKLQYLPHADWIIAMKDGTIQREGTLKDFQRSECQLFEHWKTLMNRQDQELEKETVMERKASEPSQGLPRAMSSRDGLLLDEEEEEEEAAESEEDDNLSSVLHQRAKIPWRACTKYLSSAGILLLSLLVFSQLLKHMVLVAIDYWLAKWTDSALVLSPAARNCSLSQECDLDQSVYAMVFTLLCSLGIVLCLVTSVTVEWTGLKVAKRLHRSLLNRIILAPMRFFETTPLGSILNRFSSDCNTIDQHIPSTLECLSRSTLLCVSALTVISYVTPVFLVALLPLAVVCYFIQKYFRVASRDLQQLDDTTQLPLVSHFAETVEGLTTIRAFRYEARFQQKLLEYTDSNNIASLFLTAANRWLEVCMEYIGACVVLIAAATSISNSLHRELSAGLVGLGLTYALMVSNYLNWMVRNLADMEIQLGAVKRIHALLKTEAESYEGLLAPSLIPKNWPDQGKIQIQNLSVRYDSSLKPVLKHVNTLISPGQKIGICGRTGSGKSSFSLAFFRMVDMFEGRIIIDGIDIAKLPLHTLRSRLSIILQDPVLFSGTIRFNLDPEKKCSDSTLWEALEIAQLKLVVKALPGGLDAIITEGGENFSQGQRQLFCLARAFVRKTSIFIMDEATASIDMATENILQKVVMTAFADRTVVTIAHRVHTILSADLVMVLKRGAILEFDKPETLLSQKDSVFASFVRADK
- assay details: ATP inhibition, inside-out patch-clamp recording, COSm6 cells
- run parameters: mean ± SEM; Hill fit; −50 mV; K-INT
measurement kind: pIC50
Interpret pIC50 as the negative base-10 log of the concentration measured in mol/L.

stdin: Report pIC50 on WT (SUR1/Kir6.2) KATP channels (UniProt P70673+Q09427) for this entry: `Nc1ncnc2c1ncn2[C@@H]1O[C@H](COP(=O)(O)OP(=O)(O)OP(=O)(O)O)[C@@H](O)[C@H]1O`
stdout: 5.20

---

- target under test: SUR1^K134A/Kir6.2 channel (UniProt P70673+Q09427, K134A)
- Sequence (P70673 whole entry, one chain of several): as the sequence (P70673 whole entry Q52R/R176A, one chain of several) above, with R52Q, A176R counted along it
- assay details: ATP inhibition, inside-out patch-clamp recording, COSm6 cells
- run parameters: mean ± SEM; Hill fit; −50 mV; K-INT
measurement kind: IC50 (µM)
Form entry: value (µM) — number only.

stdin: Assign IC50 to the following record: Nc1ncnc2c1ncn2[C@@H]1O[C@H](COP(=O)(O)OP(=O)(O)OP(=O)(O)O)[C@@H](O)[C@H]1O [ATP]
stdout: 4.12

---

- target under test: SUR1/Kir6.2^R176A channel (UniProt P70673+Q09427, R176A)
- Sequence (Q09427 whole entry): as the sequence (Q09427 whole entry K134A) above, with A134K counted along it
- Sequence (P70673 whole entry R176A): as the sequence (P70673 whole entry Q52R) above, with R52Q, R176A counted along it
- assay details: ATP inhibition, inside-out patch-clamp recording, COSm6 cells
- run parameters: mean ± SEM; Hill fit; −50 mV; K-INT
measurement kind: IC50 (µM)
Reply with just the number (in µM).

stdin: Tell me measured IC50 for Nc1ncnc2c1ncn2[C@@H]1O[C@H](COP(=O)(O)OP(=O)(O)OP(=O)(O)O)[C@@H](O)[C@H]1O [ATP] please.
stdout: 11.3

The reported measurements were obtained from paper PMC10954709.
